Target: T1, HLA-A2402 molecule on T2-A24 cells (human, UniProt P04439-2 25-302 at identity 0.92))
T1 construct: whole, on cells; Cell-surface HLA-A2402 of T2-A24 transfectants; also called HLA-A24 molecules
T1 MHC heavy: not shown
Experiment: MHC stabilization assay, T2-A24 cells with 10 µM peptide, anti-HLA-A2402 mAb staining, flow cytometry
Threshold check on % MFI increase: strictly below 30% is y; on or above 30% is n.

Example entries begin here.
binder="LFHSKKMDL (Synthetic peptide) [Ep225 (Ep-CAM 225-233 peptide LFHSKKMDL)]" cat=y
binder="KYEKAEIKEM (Synthetic peptide) [Ep296 (Ep-CAM 296-305 peptide KYEKAEIKEM)]" cat=y
binder="YYVDEKAPEF (Synthetic peptide) [Ep250 (Ep-CAM 250-259 peptide YYVDEKAPEF)]" cat=n
binder="LYENNVITI (Synthetic peptide) [Ep185 (Ep-CAM 185-193 peptide LYENNVITI)]" cat=n
binder="NYKLAVNCF (Synthetic peptide) [Ep31 (Ep-CAM 31-39 peptide NYKLAVNCF)]" cat=n

Consider the additional binder presented here.
Asked: % MFI increase strictly < 30% for this binder? EMGEMHREL (Synthetic peptide) [Ep304 (Ep-CAM 304-312 peptide EMGEMHREL)]
Given back: y

Each recorded value in this set is attributed to patent US20100167321A1.
